measurementTarget: human ether-à-go-go-related gene (hERG) potassium channel (human);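 further: peak tail current of the secondary pulse compared with the same well before compound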
assayProcedure: primary screen, population patch clamp on CHO cells stably expressing hERG; higher = less effect of the substance
In all, about 310,000 compounds went through this assay and about 14,000 (4.5%) showed an effect of 50% or more. The effect is printed as a negative number. This is one part of a sample in which strong results are shown more often than they occur.
measuredAttribute: hERG current change (%, negative = inhibition) at 10uM (%)
Respond numerically; units are % and should not be typed.

These solved cases illustrate the format of a correct answer.
# compound, observedResult
rows = [
    ("C=CCn1c(SCn2nnc3ccccc3c2=O)nnc1-c1ccc(F)cc1", -28.9),
    ("O=C(NNC(=O)C1[C@H]2CCCC[C@@H]12)Nc1cccc2ccccc12 (stereo partly shown)", -6.11),
    ("Cc1ccc(NC(=O)COC(=O)Cc2c[nH]c3ccccc23)cc1C", -7.15),
]

input: # get_value(readout='hERG current change (%, negative = inhibition) at 10uM', item= CCOc1ccc(CC2CC(=O)NC2=O)cc1 (stereo not shown) )
output: 12.5

input: # get_value(readout='hERG current change (%, negative = inhibition) at 10uM', item= `COc1ccc(CN(Cc2cc3ccc(C)cc3[nH]c2=O)Cc2nnnn2C2CCCC2)cc1` )
output: -21.4

input: # get_value(readout='hERG current change (%, negative = inhibition) at 10uM', item= `O=c1cc(CSc2nnc(-c3cccs3)n2Cc2ccccc2)nc2sc3ccccc3n12` )
output: -53.5

input: # get_value(readout='hERG current change (%, negative = inhibition) at 10uM', item= `C=CCn1c(SCn2nnc3ccccc3c2=O)nnc1C1CCCCC1` )
output: -14.1

input: # get_value(readout='hERG current change (%, negative = inhibition) at 10uM', item= `C=CCn1c(SCn2nnc3ccccc3c2=O)nnc1-c1ccc(Cl)cc1` )
output: -61.2

input: # get_value(readout='hERG current change (%, negative = inhibition) at 10uM', item= `O=[N+]([O-])c1ccc(N2CCCCCC2)c2ncccc12` )
output: 5.54

input: # get_value(readout='hERG current change (%, negative = inhibition) at 10uM', item= `O=C(Nc1cccc(F)c1)Nc1ccc(Cl)cn1` )
output: 7.51

input: # get_value(readout='hERG current change (%, negative = inhibition) at 10uM', item= CCN(CC1CCCN(CCc2cccc(OC)c2)C1)C(=O)C=C(C)C (stereo not shown) )
output: -61.1

input: # get_value(readout='hERG current change (%, negative = inhibition) at 10uM', item= CCCNC(=O)[C@H]1N2C(=O)c3c(ccc(OC)c3OC)C2SC1(C)C (stereo partly shown) )
output: 16.4

input: # get_value(readout='hERG current change (%, negative = inhibition) at 10uM', item= CCN(CC1CCCN(CCc2cccc(OC)c2)C1)C(=O)c1ccc(COC)o1 (stereo not shown) )
output: -71

input: # get_value(readout='hERG current change (%, negative = inhibition) at 10uM', item= `O=C(Nc1cccc(-c2ccc(N3CCCCC3)nn2)c1)C(F)(F)F` )
output: -8.5

input: # get_value(readout='hERG current change (%, negative = inhibition) at 10uM', item= `C=CCn1c(SCn2nnc3ccccc3c2=O)nc2scc(-c3cccs3)c2c1=O` )
output: -5.21

input: # get_value(readout='hERG current change (%, negative = inhibition) at 10uM', item= `C=CCn1c(COc2cccc(C)c2)nnc1SCn1nnc2ccccc2c1=O` )
output: -5.37

input: # get_value(readout='hERG current change (%, negative = inhibition) at 10uM', item= `CC1(C)COC(/C=C/c2ccc([N+](=O)[O-])cc2)=N1` )
output: -26.1

input: # get_value(readout='hERG current change (%, negative = inhibition) at 10uM', item= Cc1ccccc1C(C(=O)NC1CCCCC1)N(C(=O)CNC(=O)c1ccco1)c1cccnc1 (stereo not shown) )
output: 6.3

input: # get_value(readout='hERG current change (%, negative = inhibition) at 10uM', item= `CN(C(=O)CSc1nnc(-c2ccco2)o1)C1CCCCC1` )
output: -7.54

input: # get_value(readout='hERG current change (%, negative = inhibition) at 10uM', item= `CC(=O)c1nn(-c2ccccc2)cc1C(=O)c1ccc(C)cc1` )
output: 3.72

input: # get_value(readout='hERG current change (%, negative = inhibition) at 10uM', item= CCN(c1ccccc1)S(=O)(=O)c1ccc(Cl)c(C(=O)N(CC2CCCO2)C2CCS(=O)(=O)C2)c1 (stereo not shown) )
output: -5.04

input: # get_value(readout='hERG current change (%, negative = inhibition) at 10uM', item= COc1cccc(CC(=O)NC2CCCN(Cc3ccccc3F)C2)c1 (stereo not shown) )
output: -5.72

input: # get_value(readout='hERG current change (%, negative = inhibition) at 10uM', item= `Cc1ccc(-c2nc(C#N)c(N3CCC(C)CC3)o2)cc1` )
output: 17.5

input: # get_value(readout='hERG current change (%, negative = inhibition) at 10uM', item= `Cc1cc(NC(=O)CSc2[nH]c(=O)cc(C(F)(F)F)c2C#N)no1` )
output: -2.45

input: # get_value(readout='hERG current change (%, negative = inhibition) at 10uM', item= COc1cccc(CNC(=O)CCC2CCCN(C(=O)c3ccoc3)C2)c1 (stereo not shown) )
output: 24.9

* * *

Overview of reported hERG current change (%, negative = inhibition) at 10uM across a group of compounds:
measurementTarget: human ether-à-go-go-related gene (hERG) potassium channel (human, UniProt Q12809);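 further: peak tail current of the secondary pulse compared with the same well before compound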
Sequence (Q12809 whole entry, looked up): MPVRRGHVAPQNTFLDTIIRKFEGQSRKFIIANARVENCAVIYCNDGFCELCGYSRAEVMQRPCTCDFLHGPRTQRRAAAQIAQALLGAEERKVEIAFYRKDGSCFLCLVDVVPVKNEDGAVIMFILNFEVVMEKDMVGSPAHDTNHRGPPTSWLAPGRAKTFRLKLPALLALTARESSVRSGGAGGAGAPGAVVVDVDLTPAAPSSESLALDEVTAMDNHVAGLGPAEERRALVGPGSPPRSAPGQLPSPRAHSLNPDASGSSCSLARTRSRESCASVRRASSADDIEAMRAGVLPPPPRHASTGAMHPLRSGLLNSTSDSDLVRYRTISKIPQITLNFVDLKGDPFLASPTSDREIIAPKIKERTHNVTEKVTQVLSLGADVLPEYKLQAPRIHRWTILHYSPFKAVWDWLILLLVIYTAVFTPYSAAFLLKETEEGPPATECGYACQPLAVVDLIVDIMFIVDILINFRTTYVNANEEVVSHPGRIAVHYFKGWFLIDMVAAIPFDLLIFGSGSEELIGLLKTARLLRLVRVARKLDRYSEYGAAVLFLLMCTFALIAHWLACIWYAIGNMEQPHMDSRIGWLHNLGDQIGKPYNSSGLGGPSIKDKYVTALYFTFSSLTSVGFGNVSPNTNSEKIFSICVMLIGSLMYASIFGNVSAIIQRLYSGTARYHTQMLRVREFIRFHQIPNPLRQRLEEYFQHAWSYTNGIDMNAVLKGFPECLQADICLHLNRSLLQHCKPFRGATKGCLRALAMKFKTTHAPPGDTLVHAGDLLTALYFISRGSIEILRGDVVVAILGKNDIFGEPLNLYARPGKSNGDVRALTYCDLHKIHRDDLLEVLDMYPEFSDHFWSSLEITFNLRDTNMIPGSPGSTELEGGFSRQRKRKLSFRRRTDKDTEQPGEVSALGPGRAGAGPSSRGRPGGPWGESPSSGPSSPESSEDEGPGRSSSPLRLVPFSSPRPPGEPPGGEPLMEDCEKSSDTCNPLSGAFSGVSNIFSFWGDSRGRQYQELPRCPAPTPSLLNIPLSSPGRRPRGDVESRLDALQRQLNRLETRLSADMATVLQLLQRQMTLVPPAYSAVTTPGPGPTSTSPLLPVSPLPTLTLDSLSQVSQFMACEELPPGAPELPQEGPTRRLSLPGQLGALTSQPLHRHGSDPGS
assayProcedure: primary screen, population patch clamp on CHO cells stably expressing hERG; higher = less effect of the substance
Screen size: about 310,000 compounds; about 14,000 (4.5%) showed an effect of 50% or more. Effects have a minus sign here. For the sample, strong results were picked, then their nearest neighbours and some compounds at random.
Respond numerically; units are % and should not be typed.

These solved cases illustrate the format of a correct answer.
# molecule, measurementTarget, observedResult
measured = [
    ("COc1ccc(N(C(=O)c2ccncc2)S(=O)(=O)c2ccc(Cl)cc2)cc1", "human ether-à-go-go-related gene (hERG) potassium channel (human, UniProt Q12809)", -26.4),
    ("O=C(NC(=S)N1CCN(c2ccc([N+](=O)[O-])cc2)CC1)c1ccc(F)cc1", "human ether-à-go-go-related gene (hERG) potassium channel (human, UniProt Q12809)", -58.5),
]

input: # get_value(readout='hERG current change (%, negative = inhibition) at 10uM', item= `Nc1ccc(N=Nc2ccccc2)c2cccnc12` )
output: 17.2

input: # get_value(readout='hERG current change (%, negative = inhibition) at 10uM', item= `CCC(=O)c1ccc(N2CCCC2)c(F)c1` )
output: 6.95

* * *

measurementTarget: human ether-à-go-go-related gene (hERG) potassium channel (human);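 further: peak tail current of the secondary pulse compared with the same well before compound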
assayProcedure: primary screen, population patch clamp on CHO cells stably expressing hERG; higher = less effect of the substance
In all, about 310,000 compounds went through this assay and about 14,000 (4.5%) showed an effect of 50% or more. The effect is printed as a negative number. This is one part of a sample in which strong results are shown more often than they occur.
Overview of reported hERG current change (%, negative = inhibition) at 10uM across a group of molecules:
Respond numerically; units are % and should not be typed.

# molecule, observedResult
measured = [
    ("Cc1cccc(NC(=O)c2sc3nc4c(c(-c5cccs5)c3c2N)CN(C)CC4)c1", -51.6),
    ("Cc1cnc(C(=O)NC2CC(C)(C)Cc3c2cnn3-c2cccc(F)c2)cn1 (centres unmarked)", -33.5),
    ("COc1ccc(C(=O)NC2CC(C)(C)Cc3c2cnn3-c2ccccc2)c(OC)c1 (centres unmarked)", -2.5),
]

input: # get_value(readout='hERG current change (%, negative = inhibition) at 10uM', item= `CC(C)n1nc(C(=O)NNC(=O)c2ccc(OC(F)F)cc2)c2ccccc2c1=O` )
output: -76.3

input: # get_value(readout='hERG current change (%, negative = inhibition) at 10uM', item= `COC(=O)c1sc2nc3c(c(-c4cccs4)c2c1N)CCCC3` )
output: 9.57

input: # get_value(readout='hERG current change (%, negative = inhibition) at 10uM', item= `Cc1cccc(NC(=O)c2sc3nc4c(c(-c5ccco5)c3c2N)CCC4)c1` )
output: -3.19

input: # get_value(readout='hERG current change (%, negative = inhibition) at 10uM', item= `CC(C)n1nc(C(=O)NNC(=O)c2ccncc2)c2ccccc2c1=O` )
output: 3.56

* * *

Overview of reported hERG current change (%, negative = inhibition) at 10uM across a group of compounds:
measurementTarget: human ether-à-go-go-related gene (hERG) potassium channel (human, UniProt Q12809);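 further: peak tail current of the secondary pulse compared with the same well before compound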
assayProcedure: primary screen, population patch clamp on CHO cells stably expressing hERG; higher = less effect of the substance
The whole screen tested about 310,000 compounds, of which about 14,000 (4.5%) showed an effect of 50% or more. Effects have a minus sign here. This is one part of a sample in which strong results are shown more often than they occur.
Respond numerically; units are % and should not be typed.

# compound, measurementTarget, observedResult
records = [
    ("COc1cccc(OC)c1OCCNCC1COc2ccccc2O1.Cl (stereo not drawn)", "human ether-à-go-go-related gene (hERG) potassium channel (human, UniProt Q12809)", -22.5),
]

input: # get_value(readout='hERG current change (%, negative = inhibition) at 10uM', item= `COc1ccc(CCNS(=O)(=O)c2ccc(Cl)cc2)cc1OC` )
output: -6.54

input: # get_value(readout='hERG current change (%, negative = inhibition) at 10uM', item= `COc1cccc(OC)c1OCCNCCO` )
output: 21.5
